Data provenance is patent US20110002929A1.

Molecular target: T1, human RANK-L (human, UniProt O14788 140-317, limits assumed)
T1 construct: Soluble protein, used coated, biotinylated or labelled in ELISA, AlphaScreen, FMAT and Biacore; also called hRANK-L; soluble human RANK-L
T1 sequence (looked up): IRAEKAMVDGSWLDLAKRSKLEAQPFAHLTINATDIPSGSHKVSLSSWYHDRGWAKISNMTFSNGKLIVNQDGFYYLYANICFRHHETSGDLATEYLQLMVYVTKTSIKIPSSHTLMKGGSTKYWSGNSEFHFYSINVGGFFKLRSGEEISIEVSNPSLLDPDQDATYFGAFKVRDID
Assay: ELISA (ED50), biotin-hRANK-L on neutravidin
Overview of reported pEC50 across a group of binders:
Conceptually, pEC50 converts a concentration in mol/L into minus its log10.

Below, 3 binders whose answers are already recorded.
>>> value_observed("RANKL16 (VHH, not shown: c-myc and His6 tags) VHH: EVQLVESGGGLVQAGGSLRLSCVASRRTFSSYAMGWFRQVPGKERDFVAAISTGSITIYGDSVKGRFTISRDNAKNTVYLQMNSLKPEDTAVYYCAAGKREPYLRQYTASNPYDYWGQGTQVTVSS")
9.02
>>> value_observed("RANKL6 (VHH, not shown: c-myc and His6 tags) VHH: EVQLVESGGGLMQTGGSLRLSCAASGVTYSYYTASWFRQAPGKEREFVAAISPSGNTYYADSVKGRFTISRDNGKHTMYLQMNSLNPEDTAVYFCAIRATDSIYYASSYRHWGQGTQVTVSS")
9.41
>>> value_observed("RANKL13 (VHH, not shown: small tags and cut ends) VHH: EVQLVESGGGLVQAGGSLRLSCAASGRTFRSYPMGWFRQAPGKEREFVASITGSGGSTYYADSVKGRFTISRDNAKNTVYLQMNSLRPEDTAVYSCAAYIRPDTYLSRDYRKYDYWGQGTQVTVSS")
9.65

// moving on: another record for pEC50
# pEC50 lookup, item RANKL22 (VHH, also called 7D12; not shown: c-myc and His6 tags) VHH: EVQLVESGGGLMQTGGSLRLSCAASERTSRNYGMGWFRQAPGKEREFVAAITSAGGTTYYGDFVKGRFTISRDSAKYTVYLQMNSLKPEDTAVYWCAAKLQIGGRWHNLNDYGYRGQGTQVTVSS
9.42
